The entries below are paired with their reported inhibition at 1 µM.
target.or.system: T1, γ-secretase (cleavage of APP, Aβ42) (Homo sapiens, UniProt P49768)
T1 construct: endogenous in cells; host or cells: HEK AP-GL-T16 luciferase reporter cells (tetracycline-induced APP substrate)
test.description: Aβ (1-42) cellular assay (Aβ ELISA, HEK AP-GL-T1 6 cells)
Format: cell-based
condition.notes: at 1 μM (concentration in brackets); read-out: Aβ42 % Inh
Give your result in % as a bare value.

// worked examples, inhibition at 1 µM included
(Q) Hello, I am looking for reported inhibition at 1 µM with T1, γ-secretase (cleavage of APP, Aβ42) (Homo sapiens, UniProt P49768) for CC1CCCCC1N(Cc1ccc(C(=O)NC(C)(C)C(=O)O)cc1)S(=O)(=O)c1ccc(C(F)(F)F)nc1 (stereo not shown) . Could you help?
(A) 56

(Q) // query: O=C(O)c1ccc(CN(C2CCCC(C(F)(F)F)C2)S(=O)(=O)c2ccc(Cl)nc2)cc1 (stereo not shown)
(A) 87

(Q) // query: O=C(O)c1ccc(CN(C2CCCCC2O)S(=O)(=O)c2ccc(Cl)cc2)cc1 (stereo not shown)
(A) 51

Others:
(Q) Hello, I am looking for reported inhibition at 1 µM with T1, γ-secretase (cleavage of APP, Aβ42) (Homo sapiens, UniProt P49768) for COc1ccc(CN(C2CCOCC2)S(=O)(=O)c2ccc(Cl)cc2)cc1C(=O)O . Could you help?
(A) 0

----------
The entries below are paired with their reported Notch Luc/Aβ42.
target.or.system: γ-secretase (cleavage of Notch) (Homo sapiens)
Construct: endogenous in cells; host or cells: U2OS luciferase reporter cells with Tet-on Notch
test.description: Notch cellular assay (luciferase reporter U2OS cells)
Assay type: cell-based
condition.notes: ratio Notch luciferase IC50 to Aβ42 IC50
Write the number on its own, no unit after it.

// worked examples, Notch Luc/Aβ42 included
(Q) // lookup Notch Luc/Aβ42 for CC[C@@H](C1CCCC1)N(Cc1ccc(C(=O)O)cc1)S(=O)(=O)c1ccc(Cl)cc1
(A) 1400

(Q) // query: CC(=O)CNC(=O)c1ccc(CN(C2CCCCC2C)S(=O)(=O)c2ccc(Cl)cc2)cc1 (centres unmarked)
(A) 260

(Q) // query: CC1CCCCC1N(Cc1ccc(C(=O)NCCO)cc1)S(=O)(=O)c1ccc(Cl)cc1 (centres unmarked)
(A) 1192

(Q) // query: CC1CCCCC1N(Cc1ccc(C(=O)NCC(F)(F)F)cc1)S(=O)(=O)c1ccc(Cl)cc1 (centres unmarked)
(A) 220

(Q) // query: O=C(O)c1ccc(CN(C2CCCC(C(F)(F)F)C2)S(=O)(=O)c2ccc(Cl)cc2)cc1 (centres unmarked)
(A) 52

(Q) // query: CC1CCCCC1N(Cc1ccc(C(=O)N[C@@H](C)CO)cc1)S(=O)(=O)c1ccc(Cl)cc1 (some centres unmarked)
(A) 1586

(Q) // query: CC1CCCCC1N(Cc1ccc(C(=O)NCCC(=O)O)cc1)S(=O)(=O)c1ccc(Cl)cc1 (centres unmarked)
(A) 57

Now for a further molecule.
(Q) // lookup Notch Luc/Aβ42 for CC1CCCCC1N(Cc1ccc(C(=O)O)cc1)S(=O)(=O)c1ccc(C(F)(F)F)nc1 (centres unmarked)
(A) 169

----------
target.or.system: γ-secretase (cleavage of Notch) (Homo sapiens)
Construct: endogenous in cells; host or cells: U2OS luciferase reporter cells with Tet-on Notch
test.description: Notch cellular assay (luciferase reporter U2OS cells)
Assay type: cell-based
condition.notes: ratio Notch luciferase IC50 to Aβ42 IC50
# cutoff 600 applies to Notch Luc/Aβ42; >= gives Fulfilled, < gives Not fulfilled

Known results for compounds:
(Q) Kindly determine if Notch Luc/Aβ42 recorded for CC1CCCC(N(Cc2ccc(C(=O)N[C@H](C)CO)cc2)S(=O)(=O)c2ccc(Cl)cc2)C1 (some centres unmarked) [Example 50] is above or exactly 600.
(A) Fulfilled

(Q) // query: CC1CCCCC1N(Cc1ccc(C(=O)N[C@H](C)CO)cc1)S(=O)(=O)c1ccc(Cl)cc1 (some centres unmarked) [Example 4]
(A) Fulfilled

(Q) // query: CC[C@@H](C1CCCCC1)N(Cc1ccc(C(=O)O)cc1)S(=O)(=O)c1ccc(Cl)cc1 [Example 15]
(A) Fulfilled

Others:
(Q) Kindly determine if Notch Luc/Aβ42 recorded for CC1CCCCC1N(Cc1ccc(C(=O)NC[C@H](C)O)cc1)S(=O)(=O)c1ccc(Cl)cc1 (some centres unmarked) [Example 47] is above or exactly 600.
(A) Fulfilled

(Q) // query: CC1CCCCC1N(Cc1ccc(C(=O)NCCC(F)(F)F)cc1)S(=O)(=O)c1ccc(Cl)cc1 (centres unmarked) [Example 55]
(A) Not fulfilled

(Q) // query: CC1CCCCC1N(Cc1ccc(C(=O)NC(C)(C)C(=O)O)cc1)S(=O)(=O)c1ccc(Cl)cc1 (centres unmarked) [Example 34]
(A) Not fulfilled

(Q) // query: CC[C@@H](C1CCCC1)N(Cc1ccc(C(=O)OC)cc1)S(=O)(=O)c1ccc(Cl)cc1 [Example 21]
(A) Not fulfilled
